Ref: PubChem BioAssay

assay: antimalarial activity against Dd2 strain (AID 2302); conditions: P. falciparum Dd2 in RBCs, LDH growth readout, 72 h; at 2 µM
The source made the active and inactive calls.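 Rule for the calls: active = growth inhibition above 50% at the single 2 µM test dose, taken to imply half-maximal potency below 2 µM; inactive = the rest.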
Select the matching outcome among Yes = active, No = inactive

>  <compound>
O=C(NCCNc1nc(NCCNC(=O)Nc2ccccc2)c2ccc(=O)n(-c3c(F)cccc3F)c2n1)Nc1ccccc1

>  <group label>
Yes

$$$$
>  <compound>
CC(=O)c1cc(N2CCOCC2)ccc1N

>  <group label>
No

$$$$
>  <compound>
O=C(Nc1cccc(C(F)(F)F)c1)c1cccc(S(=O)(=O)NCC2CCCN(CC3CCCCC3)C2)c1 (centres undefined)

>  <group label>
No

$$$$

# lookup: test call for O=C(Cc1ccc(-n2cnnn2)cc1)N(Cc1cncn1Cc1cccc(C(F)(F)F)c1)CC1CC1 No

# lookup: test call for O=S(=O)(Nc1ccc(CCN2CCC(N3CCCCC3)CC2)cc1)c1ccc(Cl)cc1 No

# lookup: test call for O=C(Nc1ccccc1F)N(CCCn1ccnc1)Cc1csc(-c2ccc(CNCc3ccccc3)cc2)n1 No

# lookup: test call for O=[N+]([O-])c1cc(/C=N/Nc2nc3ccccc3[nH]2)ccc1O No

# lookup: test call for CC(Cc1ccc(CN2CCN(Cc3ccccc3)CC2)cc1)NCC(O)c1cccc(C(F)(F)F)c1 (centres undefined) Yes

# lookup: test call for COc1ccc2nccc(CCN3C[C@H](CNCc4ccc5c(n4)NC(=O)CS5)[C@H](O)C3)c2n1 No

# lookup: test call for CC(Cc1ccc(Cl)cc1)Nc1nc(NC2CCCC2)nc(N2CCC(C#N)(c3ccccc3)CC2)n1 (centres undefined) Yes
